Reported values of % assay/degs, difference from T = 0 for individual entries
# Type: physicochemical
# particulars: pH 1.8; Ambient; 3 h
Give the number; % is assumed, so skip it.

- smilesStructure: "N#C[C@@]1(c2ccc3c(N)ncnn23)O[C@H](COP(=O)(O)Oc2ccccc2)[C@@H](O)[C@H]1O"
  % assay/degs, difference from T = 0 [%]: 0.13
- smilesStructure: "CCC(CC)COC(=O)[C@H](C)N[P@](=O)(OC[C@H]1O[C@@](C#N)(c2ccc3c(N)ncnn23)[C@H](O)[C@@H]1O)Oc1ccccc1"
  % assay/degs, difference from T = 0 [%]: "−0.3"
- smilesStructure: "CCC(CC)COC(=O)[C@H](C)N[P@](=O)(OC[C@H]1O[C@@](C(N)=O)(c2ccc3c(N)ncnn23)[C@H](O)[C@@H]1O)Oc1ccccc1"
  % assay/degs, difference from T = 0 [%]: 0.00

Consider now this further compound.
Recorded % assay/degs, difference from T = 0 for N#C[C@@]1(c2ccc3c(N)ncnn23)O[C@H](CO)[C@@H](O)[C@H]1O , please?
0.01

----------
# Format: physicochemical
# particulars: pH 2.0; T = 0
Reported values of % assay/degs for individual entries
Give the number; % is assumed, so skip it.

Check out these entries, answers already filled in.
- smilesStructure: "N#C[C@@]1(c2ccc3c(N)ncnn23)O[C@H](COP(=O)(O)Oc2ccccc2)[C@@H](O)[C@H]1O"
  unitsText: "%"
  % assay/degs: 0.06
- smilesStructure: "CCC(CC)COC(=O)[C@H](C)N[P@](=O)(OC[C@H]1O[C@@](C#N)(c2ccc3c(N)ncnn23)[C@H](O)[C@@H]1O)Oc1ccccc1"
  unitsText: "%"
  % assay/degs: 99.2
- smilesStructure: "N#C[C@@]1(c2ccc3c(N)ncnn23)O[C@H](CO)[C@@H](O)[C@H]1O"
  unitsText: "%"
  % assay/degs: 0.02

Recorded % assay/degs for CCC(CC)COC(=O)[C@H](C)N[P@](=O)(OC[C@H]1O[C@@](C(N)=O)(c2ccc3c(N)ncnn23)[C@H](O)[C@@H]1O)Oc1ccccc1 , please?
0.05

----------
Reported values of Tmax for individual entries
# testName: in vivo
# particulars: both, monkey, inhaled or intranasal, 0.536 mg/kg
Quote the value and follow it with the unit of measurement.

- smilesStructure: "CCC(CC)COC(=O)[C@H](C)N[P@](=O)(OC[C@H]1O[C@@](C#N)(c2ccc3c(N)ncnn23)[C@H](O)[C@@H]1O)Oc1ccccc1"
  Tmax: "1.53 h"

Consider now this further compound.
Recorded Tmax for N#C[C@@]1(c2ccc3c(N)ncnn23)O[C@H](CO)[C@@H](O)[C@H]1O , please?
2 h

----------
Reported values of % assay/degs, difference from T = 0 for individual entries
# Type: physicochemical
# particulars: pH 2.0; 2-8° C.; 2 h
Give the number; % is assumed, so skip it.

- compound: "CCC(CC)COC(=O)[C@H](C)N[P@](=O)(OC[C@H]1O[C@@](C(N)=O)(c2ccc3c(N)ncnn23)[C@H](O)[C@@H]1O)Oc1ccccc1 [Compound G]"
  unitsText: "%"
  % assay/degs, difference from T = 0: 0.00
- compound: "CCC(CC)COC(=O)[C@H](C)N[P@](=O)(OC[C@H]1O[C@@](C#N)(c2ccc3c(N)ncnn23)[C@H](O)[C@@H]1O)Oc1ccccc1 [Formula Ia]"
  unitsText: "%"
  % assay/degs, difference from T = 0: 0.6
- compound: "N#C[C@@]1(c2ccc3c(N)ncnn23)O[C@H](CO)[C@@H](O)[C@H]1O [Compound A]"
  unitsText: "%"
  % assay/degs, difference from T = 0: 0.00

Recorded % assay/degs, difference from T = 0 for N#C[C@@]1(c2ccc3c(N)ncnn23)O[C@H](COP(=O)(O)Oc2ccccc2)[C@@H](O)[C@H]1O [Compound F] , please?
0.02
